Every entry's value here was drawn from ChEMBL document CHEMBL5316300.

target: Collagenase 3 (Homo sapiens, UniProt P45452); assay: Inhibition of human recombinant MMP13 using MOCAc-Lys-Pro-Leu-Gly-Leu-A2pr(Dnp)-Ala-Arg-N2 as substrate preincubated for 15 mins followed by substrate addition and measured after 120 mins by fluorescence based assay
measurement type: pKi
To interpret pKi, take it as minus log10 of a concentration measured in moles per litre.

pKi for CC(C)C[C@H](NC(=O)[C@@H]1C[C@H](N)CN1C(=O)CC[C@@H](NS(=O)(=O)c1ccc(NC(=O)c2ccc(C(N)=O)cc2)cc1)C(=O)O)C(=O)N(C)[C@@H](CCC(=O)O)C(=O)NCCCCC(N)=O is 6.96

###

Hi there, I'd appreciate the recorded pIC50 for every entry that follows.
molecular target: Macrophage metalloelastase (Homo sapiens); assay: Inhibition of human recombinant MMP12 using MOCAc-Lys-Pro-Leu-Gly-Leu-A2pr(Dnp)-Ala-Arg-N2 as substrate preincubated for 10 to 15 mins followed by substrate addition and measured after 60 to 120 mins by fluorescence based assay; settings: read-out: IC50
Sequence (P39900 whole entry): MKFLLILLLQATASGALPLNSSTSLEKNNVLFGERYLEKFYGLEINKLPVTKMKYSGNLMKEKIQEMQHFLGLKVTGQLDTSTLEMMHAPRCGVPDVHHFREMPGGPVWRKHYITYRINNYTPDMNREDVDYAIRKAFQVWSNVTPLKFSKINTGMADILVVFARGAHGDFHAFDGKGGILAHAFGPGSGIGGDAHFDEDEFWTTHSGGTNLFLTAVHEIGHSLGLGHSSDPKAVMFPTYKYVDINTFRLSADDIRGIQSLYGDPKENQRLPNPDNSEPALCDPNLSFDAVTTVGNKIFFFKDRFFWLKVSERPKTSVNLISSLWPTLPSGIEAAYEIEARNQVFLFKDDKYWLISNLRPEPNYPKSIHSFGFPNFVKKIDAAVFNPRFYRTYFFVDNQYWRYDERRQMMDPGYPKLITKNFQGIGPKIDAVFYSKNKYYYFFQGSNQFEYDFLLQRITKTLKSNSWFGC
As a rule, pIC50 stands for the negative log10 of the concentration, concentration in M.

The reported pIC50 value, Macrophage metalloelastase (Homo sapiens), for CC[C@H](C)[C@@H](C(=O)NCCCCCC(N)=O)N(C)C(=O)[C@H](CC(C)C)NC(=O)[C@H](CCN)NC(=O)CC[C@@H](NS(=O)(=O)c1ccc(NC(=O)c2ccc(Cl)cc2)cc1)C(=O)O reads 6.59

Test item CC[C@H](C)[C@@H](C(=O)NCCCCC(N)=O)N(C)C(=O)[C@H](CC(C)C)NC(=O)[C@H](CCN)NC(=O)CC[C@@H](NS(=O)(=O)c1ccc(NC(=O)c2ccc(Cl)cc2)cc1)C(=O)O ; Macrophage metalloelastase (Homo sapiens); reported pIC50 was 6.74

Form field, pIC50 with Macrophage metalloelastase (Homo sapiens), item CC[C@H](C)[C@@H](C(=O)N1CCC[C@H]1CC(N)=O)N(C)C(=O)[C@H](CC(C)C)NC(=O)[C@H](CCN)NC(=O)CC[C@@H](NS(=O)(=O)c1ccc(-c2ccccc2)cc1)C(=O)O : 6.62

Entry CC[C@H](C)[C@@H](C(=O)N1CCC[C@H]1CC(N)=O)N(C)C(=O)[C@H](CC(C)C)NC(=O)[C@H](CCN)NC(=O)CC[C@@H](NS(=O)(=O)c1ccc(NC(=O)c2ccc(Cl)cc2)cc1)C(=O)O , Macrophage metalloelastase (Homo sapiens) data, pIC50 value: 6.70

Fill in: Macrophage metalloelastase (Homo sapiens) pIC50 for CC[C@H](C)[C@@H](C(=O)NCCCC(N)=O)N(C)C(=O)[C@H](CC(C)C)NC(=O)[C@H](CCN)NC(=O)CC[C@@H](NS(=O)(=O)c1ccc(NC(=O)c2ccc(Cl)cc2)cc1)C(=O)O = 6.64

Observed pIC50, Macrophage metalloelastase (Homo sapiens), CC[C@H](C)[C@@H](C(=O)NCCCCC(N)=O)N(C)C(=O)[C@H](CC(C)C)NC(=O)[C@H](CCN)NC(=O)CC[C@@H](NS(=O)(=O)c1ccc(NC(=O)c2ccc(C(N)=O)cc2)cc1)C(=O)O : 6.39

Field pIC50 (system: Macrophage metalloelastase (Homo sapiens)) for entry CC[C@H](C)[C@@H](C(=O)N1CCC[C@H]1CC(N)=O)N(C)C(=O)[C@H](CC(C)C)NC(=O)[C@H](CCN)NC(=O)CC[C@@H](NS(=O)(=O)c1ccc(NC(=O)c2ccccc2)cc1)C(=O)O = 6.00
